target: human BRD4 bromodomain II (Homo sapiens, UniProt O60885); construct: human BRD4 bromodomain II [based on Genbank NM_058243, residues 349-460]; host or cells: E. coli; experiment: Bromodomain binding assay (AlphaScreen), BRD4 BDII; conditions: AlphaScreen assay, Table C2; read-out: BRD4 BDII IC50
assay.endpoint: IC50

Consider the following illustrative entries.
> print(dat)
                                   compound  assay.endpoint  reported.value
1  CC(=O)N(C)C1(c2cccc(-c3cc(F)cc(-c4ccc(-n5ccn(C)c5=O)c(Cl)c4)c3O)c2)CC1 [Example 794]            IC50    10 to 100 nM
2  Cn1ccn(-c2ccc(-c3cc(F)cc(-c4cncc(N5CCNC(C)(C)C5)c4)c3O)cc2Cl)c1=O [Example 561]            IC50    0.01 to 1 nM
3  Cn1ccn(-c2ccc(-c3cc(F)cc(-c4ccnc(N5CCC(O)(CO)C5)c4)c3O)cc2Cl)c1=O (centres unmarked) [Example 731]            IC50    0.01 to 1 nM
4  CN1CCN(c2ccc(-c3cc(F)cc(-c4ccnc(C5=CCNCC5)c4)c3O)cc2Cl)C1=O [Example 379]            IC50      1 to 10 nM
5  CC(=O)Nc1ccc(-c2cccc(-c3ccc(OC(C)C)cc3)c2O)cc1F [Example 106]            IC50        > 100 nM
6  Cn1ccn(-c2ccc(-c3cc(F)cc(-c4cncc(N5CC[C@](C)(N)C5)c4)c3O)cc2Cl)c1=O [Example 746]            IC50    0.01 to 1 nM
7  CN(C)[C@H]1CCN(c2cncc(-c3cc(F)cc(-c4ccc(-n5ccn(C)c5=O)c(Cl)c4)c3O)c2)C1 [Example 475]            IC50    0.01 to 1 nM

Please turn your attention to the following entry.
Record CC(=O)Nc1ccc(-c2cccc(-c3cnn(C)c3)c2O)cc1 [Example 13] , field IC50: > 100 nM

---

// reported GI50 for each item listed
system: human SKM-1 acute myeloid leukemia cells; test: SKM-1 antiproliferation cell-based assay (ATPlite); conditions: Homo sapiens, SKM-1, 96 h, SKM-1 antiproliferation assay, 4 days, Table C2

> print(dat)
                                   compound  assay.endpoint  reported.value
1  Cn1ccn(-c2ccc(-c3cc(F)cc(-c4ccnc(N5CC6CCNC6C5)c4)c3O)cc2Cl)c1=O (stereo not shown)            GI50    0.3 to 30 nM
2  Cn1ccn(-c2c(Cl)cc(-c3cc(F)cc(-c4ccnc(N5CCNCC5)c4)c3O)cc2Cl)c1=O            GI50  300 to 3000 nM
3  CN1CCN(c2ccc(-c3cc(F)cc(-c4ccc(OC5CCNCC5)nc4)c3O)cc2Cl)C1=O            GI50  300 to 3000 nM

Please turn your attention to the following entry.
Entry `Cn1cc(-c2cc(F)cc(-c3ccc(-n4ccn(C)c4=O)c(Cl)c3)c2O)cc(N2CCNCC2)c1=O` , tested on human SKM-1 acute myeloid leukemia cells, has a reported GI50 of 0.3 to 30 nM

---

molecular target: human BRD4 bromodomain II (Homo sapiens); construct: human BRD4 bromodomain II [based on Genbank NM_058243, residues 349-460]; host or cells: E. coli; assay: Bromodomain binding assay (AlphaScreen), BRD4 BDII; details: BRD4 BDII AlphaScreen assay; read-out: BRD4 BD2 IC50
assay.endpoint: IC50

Consider the following illustrative entries.
> print(dat)
                                   molecule  reported.value
1  Cn1ccn(-c2ccc(-c3cc(F)cc(-c4ccnc(N5CC(C)(O)C(F)(F)C5)c4)c3O)cc2Cl)c1=O (stereo not shown)      1 to 10 nM
2  COc1ncc(-c2nc(C)cc(-c3ccc(-n4ccn(C)c4=O)c(Cl)c3)c2O)cc1N1CC2CCC(C1)N2C(C)C      1 to 10 nM

Entry `COc1c(-c2cccc(N3CCN(C(C)(C)C)CC3)c2)cc(F)cc1-c1ccc(-n2ccn(C)c2=O)c(Cl)c1` , tested on human BRD4 bromodomain II (Homo sapiens), has a reported IC50 of 10 to 100 nM

Entry `CNc1ncc(-c2nc(C)cc(-c3ccc(-n4ccn(C)c4=O)c(Cl)c3)c2O)cc1N1CCN(C(C)(C)C)CC1` , tested on human BRD4 bromodomain II (Homo sapiens), has a reported IC50 of 1 to 10 nM

Entry `Cc1cc(-c2ccc(-n3ccn(C)c3=O)c(Cl)c2)c(O)c(-c2cc(N3CCN(C(C)(C)C)CC3)cc(F)c2F)n1` , tested on human BRD4 bromodomain II (Homo sapiens), has a reported IC50 of 0.01 to 1 nM

Entry `Cn1ccn(-c2ccc(-c3cc(F)nc(-c4cccc(N5CCN(C(C)(C)C)CC5)c4)c3O)cc2Cl)c1=O` , tested on human BRD4 bromodomain II (Homo sapiens), has a reported IC50 of 0.01 to 1 nM

Entry `CC(=O)Nc1ccc(-c2cc(C)nc(-c3cccc(N4CCN(C(C)(C)C)CC4)c3)c2O)cc1Cl` , tested on human BRD4 bromodomain II (Homo sapiens), has a reported IC50 of 1 to 10 nM

Entry `COc1ncc(-c2cc(F)cc(-c3ccc(-n4cc(C)n(C)c4=O)c(Cl)c3)c2O)cc1N1CCN(C(C)(C)C)CC1` , tested on human BRD4 bromodomain II (Homo sapiens), has a reported IC50 of 1 to 10 nM
